molecular target: CDK4/Cyclin D1 (Homo sapiens (Human)); assay: CDK4/Cyclin D1 kinase TR-FRET inhibition assay; details: 1 mM ATP, Rb (Ser780)-biotin substrate, read-out: CDK4D1 IC50
Sequence (P11802 whole entry): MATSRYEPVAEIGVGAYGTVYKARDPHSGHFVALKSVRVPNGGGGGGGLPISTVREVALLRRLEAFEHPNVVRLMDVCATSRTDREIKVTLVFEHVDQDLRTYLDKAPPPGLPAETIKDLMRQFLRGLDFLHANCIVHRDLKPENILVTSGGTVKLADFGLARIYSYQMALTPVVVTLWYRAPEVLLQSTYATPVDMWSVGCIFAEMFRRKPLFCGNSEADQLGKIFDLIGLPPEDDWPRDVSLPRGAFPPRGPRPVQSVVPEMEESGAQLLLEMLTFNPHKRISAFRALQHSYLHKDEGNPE
Sequence (P24385 whole entry partner): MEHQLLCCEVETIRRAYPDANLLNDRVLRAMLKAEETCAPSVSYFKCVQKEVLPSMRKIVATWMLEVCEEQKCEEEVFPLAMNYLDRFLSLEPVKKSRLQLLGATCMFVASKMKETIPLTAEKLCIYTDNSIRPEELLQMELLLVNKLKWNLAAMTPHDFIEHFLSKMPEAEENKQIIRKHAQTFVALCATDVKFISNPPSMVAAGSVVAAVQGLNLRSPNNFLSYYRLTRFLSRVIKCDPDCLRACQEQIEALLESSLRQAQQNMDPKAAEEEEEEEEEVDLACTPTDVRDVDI
Listed here: items and their measured pIC50.
Expect pIC50 as a plain number equal to -log10 of the molar concentration.

COMPOUND | pIC50
CC(C)c1c(CN2CCCC2=O)cnc2ccc(-c3nc(N[C@@H]4CCOC[C@H]4O)ncc3F)cc12 [Example 12] | 7.72

Given CC(C)c1c(CNC[C@@H]2CCOC2)cnc2ccc(-c3nc(N[C@@H]4CCOC[C@H]4O)ncc3F)cc12 [Example 33] , state its recorded pIC50.
7.66

Given CC(C)c1nc(C(C)(C)O)nc2ccc(-c3nc(N[C@@H]4CCOC[C@H]4O)ncc3F)cc12 [Example 207] , state its recorded pIC50.
6.27

Given CC(C)c1c(CNC2CCC2)cnc2ccc(-c3nc(N[C@@H]4CCOC[C@H]4O)ncc3F)cc12 [Example 19] , state its recorded pIC50.
7.70

Given CC(C)NCc1cnc2ccc(-c3nc(N[C@@H]4CCOC[C@H]4O)ncc3F)cc2c1C(C)C [Example 22] , state its recorded pIC50.
8.15

Given Cc1c(-c2nc(N[C@@H]3CCOC[C@H]3O)ncc2F)ccc2nccc(C(C)C)c12 [Example 9] , state its recorded pIC50.
7.68

Given CNC(=O)c1cnc2ccc(-c3nc(N[C@@H]4CCOC[C@H]4O)ncc3F)cc2c1C(C)C [Example 1] , state its recorded pIC50.
7.17

* * *

Listed here: items and their measured IC50.
molecular target: CDK6/Cyclin D3 (Homo sapiens (Human), UniProt Q00534); assay: CDK6/Cyclin D3 kinase TR-FRET inhibition assay; settings: 1 mM ATP, Rb (Ser780)-biotin substrate, read-out: CDK6D3 IC50
Sequence (Q00534 whole entry): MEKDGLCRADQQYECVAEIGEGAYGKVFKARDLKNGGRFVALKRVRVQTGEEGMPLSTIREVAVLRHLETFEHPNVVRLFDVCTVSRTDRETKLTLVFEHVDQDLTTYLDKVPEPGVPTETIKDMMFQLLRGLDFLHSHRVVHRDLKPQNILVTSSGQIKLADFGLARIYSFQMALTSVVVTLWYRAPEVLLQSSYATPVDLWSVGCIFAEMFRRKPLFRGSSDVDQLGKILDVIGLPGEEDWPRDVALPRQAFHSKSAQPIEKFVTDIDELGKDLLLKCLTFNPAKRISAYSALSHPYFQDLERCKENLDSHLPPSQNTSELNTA
Sequence (P30281 whole entry partner): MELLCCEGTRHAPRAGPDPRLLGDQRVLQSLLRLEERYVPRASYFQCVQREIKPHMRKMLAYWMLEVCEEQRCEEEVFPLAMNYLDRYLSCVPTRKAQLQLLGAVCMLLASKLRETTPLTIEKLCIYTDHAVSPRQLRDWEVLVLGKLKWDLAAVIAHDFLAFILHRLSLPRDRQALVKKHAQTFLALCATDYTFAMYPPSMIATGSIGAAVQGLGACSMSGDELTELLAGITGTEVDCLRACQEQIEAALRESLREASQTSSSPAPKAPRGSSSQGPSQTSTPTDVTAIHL
Form entry: value (µM) — number only.

Observe how each entry below is paired with its result.
COMPOUND | TEST VALUE
CC(C)c1c(CN(C)C)cnc2ccc(-c3nc(N[C@@H]4CCOC[C@H]4O)ncc3F)cc12 | 0.567
CC(C)c1c([C@H](C)N2CC[C@@H](F)C2)cnc2ccc(-c3nc(N[C@@H]4CCOC[C@H]4O)ncc3F)cc12 | 0.25
Cc1nc2ccc(-c3nc(N[C@@H]4CCOC[C@H]4O)ncc3F)cc2c(C(C)C)c1C | 0.528
Cc1c(-c2nc(N[C@@H]3CCOC[C@H]3O)ncc2F)ccc2nccc(C(C)C)c12 | 0.0924
CC(C)c1c(CN)cnc2ccc(-c3nc(N[C@@H]4CCOC[C@H]4O)ncc3F)cc12 | 0.176
CC(C)c1c(C(C)(C)O)cnc2ccc(-c3nc(N[C@@H]4CCOC[C@H]4O)ncc3F)cc12 | 0.069
CC(C)c1c(CN2CCOCC2=O)cnc2ccc(-c3nc(N[C@@H]4CCOC[C@H]4O)ncc3F)cc12 | 0.464
CC(C)c1nc(C(C)(C)O)nc2ccc(-c3nc(N[C@@H]4CCOC[C@H]4O)ncc3F)cc12 | 3.02

Given `CC(C)c1c(C(C)(C)O)cnc2c(F)cc(-c3nc(N[C@@H]4CCOC[C@H]4O)ncc3Cl)cc12` , state its recorded IC50.
0.054

Given `CC(C)c1c(CNC2CC2)cnc2ccc(-c3nc(N[C@@H]4CCOC[C@H]4O)ncc3F)cc12` , state its recorded IC50.
0.224

Given `COc1ccc(NCc2cnc3ccc(-c4nc(N[C@@H]5CCOC[C@H]5O)ncc4F)cc3c2C(C)C)cc1` , state its recorded IC50.
1.04
